Biological target: GST-Lck-SH2 (UniProt P06239)
Sequence (P06239 127-224): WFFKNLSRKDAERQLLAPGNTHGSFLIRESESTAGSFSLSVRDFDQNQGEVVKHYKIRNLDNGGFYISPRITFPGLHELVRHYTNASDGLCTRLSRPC
Assay: fluorescence change on Src-catalysed phosphorylation in presence of GST-Lck-SH2 (1.25 µM peptide, 5 µM Lck-SH2, 12 nM Src, 1 mM ATP)
Measured parameter: Fold change in fluorescence intensity (fold)

Substance: Src-phosphorylated library peptide with Dab-6 (NBD on Dab) at P+1 of Ac-Glu-Glu-Glu-Ile-Tyr-Gly-Glu-Ile-Glu-Ala
Observed: 1.3

Substance: Src-phosphorylated library peptide with Dab-5 (dapoxyl on Dab) at P+2 of Ac-Glu-Glu-Glu-Ile-Tyr-Gly-Glu-Ile-Glu-Ala
Observed: 1.6

Substance: Src-phosphorylated library peptide with Dab-6 (NBD on Dab) at P+4 of Ac-Glu-Glu-Glu-Ile-Tyr-Gly-Glu-Ile-Glu-Ala
Observed: 1.7

----------
Target: GST-Lck-SH2 (UniProt P06239)
Assay: fluorescence change on Src-catalysed phosphorylation in presence of GST-Lck-SH2 (1.25 µM peptide, 5 µM Lck-SH2, 12 nM Src, 1 mM ATP)
Measured parameter: Fold change in fluorescence intensity (fold)

Substance: Src-phosphorylated library peptide with Dab-6 (NBD on Dab) at P+3 of Ac-Glu-Glu-Glu-Ile-Tyr-Gly-Glu-Ile-Glu-Ala
Measured target: GST-Lck-SH2 (UniProt P06239)
Measured parameter: Fold change in fluorescence intensity
Unit annotation: fold
Observed: 1.9

[A] Src-phosphorylated library peptide with Dap-5 (dapoxyl on Dap) at P+4 of Ac-Glu-Glu-Glu-Ile-Tyr-Gly-Glu-Ile-Glu-Ala
[B] Src-phosphorylated library peptide with Dab-5 (dapoxyl on Dab) at P+3 of Ac-Glu-Glu-Glu-Ile-Tyr-Gly-Glu-Ile-Glu-Ala
Which record would sort first by descending Fold change in fluorescence intensity, A or B ? # answer = label of selected item
B
(B: 3.6 fold, A: 2.3 fold)
